experiment_summary: Pharmacokinetic profile / in vivo conversion after oral administration to SCID mice (plasma, LC-MS/MS)
Set-up: species or system female SCID mice
conditions: female, mouse, po, Drug from Example 20 administered 25 mg/kg p.o., lipid formulation (PEG 300/ethanol/Phosal 50PG 30/10/60), read-out: Cmax, compound measured: Drug from Example 20
metric: Cmax (ng/mL)
Numeric only. Scale: ng/mL

Request: Which value of Cmax has been reported for Cc1c(N(C(=O)c2cc(-c3cc(Cl)ccc3C(=O)N3Cc4ccccc4C[C@H]3CN3CCOCC3)n(C)c2C)c2ccc(O)cc2)cc(C#N)n1C [Drug from Example 20] in the records?
Response: 5520
